The measurements presented in this section are drawn from the Immune Epitope Database (IEDB).

molecular target: HLA-A*24:03; experiment: IEDB peptide-MHC binding, purified MHC/direct/fluorescence; filed as Kd, often an IC50 or EC50 that approximates it; bounds were set here for any values at or beyond the usual limits of such assays; settings: source organism: Vibrio cholerae
Assay endpoint: Kd (nM)
Report as a plain number; the unit nM is understood.

# get_value(readout='Kd', item= YALPSAGAF )
290

----------
target: HLA-B*51:01; assay: IEDB peptide-MHC binding, purified MHC/competitive/fluorescence; filed as Kd, often an IC50 or EC50 that approximates it; bounds were set here for any values at or beyond the usual limits of such assays; details: source organism: Xanthobacter autotrophicus Py2
Assay endpoint: Kd

# get_value(readout='Kd', item= GQMYNMNTL )
≥ 20 µM
